- Test system: Poliovirus 3
- assayText: Antiviral activity against Poliovirus 3 infected in human HeLa-RW cells assessed as protection against virus-induced cytopathic effect after 3 to 4 days by crystal violet staining-based spectrophotometric method
- Type: functional, cell-based
- appliedConditions: Enterovirus C
pEC50: −log10 of the molar value.
Each record here notes measured pEC50.

itemSmiles	pEC50
CC(C)n1ncc2c(C(=O)Nc3ccccc3S(N)(=O)=O)cc(-c3cccs3)nc21	< 4.60
CC(C)n1ncc2c(C(=O)Nc3cccc(F)c3)cc(-c3cccs3)nc21	< 4.60
CC(C)n1ncc2c(C(=O)Nc3cc(F)cc(F)c3)cc(-c3cccs3)nc21	< 5.00
CC(C)n1ncc2c(C(=O)Nc3ccc(F)c(S(N)(=O)=O)c3)cc(-c3cccs3)nc21	< 5.00

Now take the following molecule into account.
*Q* Using the record for `CC(C)n1ncc2c(C(=O)Nc3ccc(S(N)(=O)=O)cc3)cc(-c3cccs3)nc21` , report its pEC50.
*A* < 5.00
